# target desc: T1, human PCSK9 (human, UniProt Q8NBP7 31-692)
# T1 construct: also called hPCSK9; huPCSK9
# assay explanation: PCSK9:LDLR FRET, competition
pIC50 values for the binders below.
Convention used: pIC50 is expressed as -log10 of the molar concentration.

- binder: "PCSK9-PKE2 tandem 4472_F04 (designed binder, The real molecule is ONE polypeptide: PCSK9 domain, undisclosed linker D, PKE2 domain. It is given here as two chains because the linker letters are unknown., not shown: The inter-domain linker) PCSK9 domain: MGVSDVPRDLEVVAATPTSLLISWDAPAEGYGYYRITYGETGGNSPVQEFTVPVSKGTATISGLKPGVDYTITVYAVEFDFPGAGYYHRPISINYRTE PKE2 domain: GVSDVPRDLEVVAATPTSLLISWDAPAVTVRYYRITYGREVQKYSDLGPLYIYQEFTVPGSKSTATISGLKPGVDYTITVYAVTGSGESPASSKPISINYRTEHHHHHH"
  pIC50: 8.92

Which pIC50 value is on record for PCSK9-PKE2 tandem 4472_B03 (designed binder, not shown: The inter-domain linker; In the real molecule the two parts below are one polypeptide joined by this linker) PCSK9 domain: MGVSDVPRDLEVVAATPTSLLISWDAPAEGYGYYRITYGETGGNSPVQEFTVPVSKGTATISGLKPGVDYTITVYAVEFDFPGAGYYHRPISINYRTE PKE2 domain: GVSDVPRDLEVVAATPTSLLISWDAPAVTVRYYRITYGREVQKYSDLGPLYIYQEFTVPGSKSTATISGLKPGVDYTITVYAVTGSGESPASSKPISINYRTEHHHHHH ?
8.85
